- Assay comment: chemical genetic growth profiling, strain panel (AID 1159580);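 note: tested at 20 µM; growth read once vehicle control cultures reached saturation at 30 °C; 1 = growth at the plate median or of vehicle wells; lower values mean less growth of the strain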
- Run parameters: S. cerevisiae deletion strains, growth OD, locus YGL227W, strain vid30, hits give low values
Out of some 5,500 compounds screened, about 2,000 (36%) were called active. Inconclusive results (about 18%) are left out. The list shows a part of the results.
normalized growth listing for selected molecules.
Lab note: record the figure alone, no unit after it.

Molecule	normalized growth
C#C[C@]1(O)CCC2C3CCC4=Cc5oncc5C[C@]4(C)C3CC[C@@]21C (stereo partly specified)	0.958
C=C(C)[C@H]1Cc2c(ccc3c2O[C@@H]2COc4cc(OC)c(OC)cc4[C@@H]2C3=O)O1	1.01
NC[C@H]1O[C@H](O[C@H]2[C@H](O)[C@@H](O[C@H]3O[C@H](CO)[C@@H](O)[C@H](N)[C@H]3O)[C@H](N)C[C@@H]2N)[C@H](N)C[C@@H]1O	1.01
CCCc1nc2c(C)cc(-c3nc4ccccc4n3C)cc2n1Cc1ccc(-c2ccccc2C(=O)O)cc1	1.01
COc1ccc(-c2oc3ccccc3c(=O)c2O)cc1OC	0.949
CNS(=O)(=O)c1ccc(NC(=O)c2ccccc2C(=O)O)cc1	0.998

The molecule listed as O=c1c(O)c(-c2ccc(O)c(O)c2)oc2cc(O)ccc12 shows normalized growth equal to 0.994

The molecule listed as CCCCc1nc(Cl)c(CO)n1Cc1ccc(-c2ccccc2-c2nn[nH]n2)cc1 shows normalized growth equal to 0.982

The molecule listed as COc1c2c(cc3c1OCO3)C13C=C[C@H](OC)CC1N(C2)CC3O (stereo partly specified) shows normalized growth equal to 0.987

The molecule listed as NCCc1cc(O)c(O)cc1O shows normalized growth equal to 1.01

The molecule listed as COc1cccc(OC)c1C(=O)N[C@@H]1C(=O)N2[C@@H]1SC(C)(C)[C@@H]2C(=O)O shows normalized growth equal to 0.992

The molecule listed as Cc1c(NC(=O)c2cccnc2)c(=O)n(-c2ccccc2)n1C shows normalized growth equal to 0.998

The molecule listed as C[C@]12CCC(=O)C=C1CCC1C2[C@@H](O)C[C@@]2(C)C1CC[C@]2(O)C(=O)COC(=O)CCC(=O)O (stereo partly specified) shows normalized growth equal to 1.01

The molecule listed as CC[C@@H](CO)NC(=O)[C@@H]1C=C2c3cccc4[nH]cc(c34)C[C@H]2N(C)C1 shows normalized growth equal to 0.991

The molecule listed as COc1cc(NS(=O)(=O)c2ccc(N)cc2)ncn1 shows normalized growth equal to 0.959

The molecule listed as CCOc1ccc(C(=O)c2ccc(OC)c(O)c2O)cc1 shows normalized growth equal to 1.03

The molecule listed as CC(=O)Oc1cc2c(c(C)c1OC(C)=O)CC1OC13C2(C)CCC1(C)C2CC(C)(C(=O)O)CCC2(C)CCC13C (stereo unspecified) shows normalized growth equal to 1.02

The molecule listed as COc1cc(/C=C/C(=O)N2CCC=CC2=O)cc(OC)c1OC shows normalized growth equal to 1.01

The molecule listed as CC1(C)C(=O)[C@@H]2C[C@@]3(O)C4=CC(=O)O[C@@H](c5ccoc5)[C@]4(C)CCC3[C@@](C)(C2=O)[C@H]1CC(=O)O (stereo partly specified) shows normalized growth equal to 0.998

The molecule listed as COc1ccc(C(=O)c2ccccc2)c(O)c1O shows normalized growth equal to 0.99

The molecule listed as CC(=O)NO shows normalized growth equal to 0.974

The molecule listed as COc1cc2cc3c4cc(OC)c(OC)cc4cc[n+]3c(C)c2cc1OC shows normalized growth equal to 1.01
